target: Glutamate receptor ionotropic, AMPA (Rattus norvegicus, UniProt P19490+P19491+P19492+P19493); assay: Tested for the inhibition of binding of [3H]AMPA radioligand to Ionotropic glutamate receptor AMPA to cortical membranes from rat brain
reported endpoint: IC50 (nM)
Give bare numbers, in nM.

- smiles entry: "O=Nc1c(O)[nH]c2c3c(c([N+](=O)[O-])cc12)CCCC3"
  IC50 (nM): 8100
- smiles entry: "CNS(=O)(=O)c1cc2c(N=O)c(O)[nH]c2c2c1CCCC2"
  IC50 (nM): 2800
- smiles entry: "CN(C)S(=O)(=O)c1cc2c(N=O)c(O)[nH]c2c2c1CCCC2"
  IC50 (nM): 1800

According to the records, this molecule NS(=O)(=O)c1cc2c(N=O)c(O)[nH]c2c2c1CCCC2 displays IC50 of 2800
